Herbicidal effects Am for assorted compounds
# Tested on: slender amaranth (Am)
# experiment_description: Test Example 7: crop plant selectivity by upland field soil treatment (corn), herbicidal effects
# Format: in vivo
# Design: scale not given here
# condition_notes: dose 1.6 g ai/10a, 21st day after application
Just the number, please, no unit attached.

Some entries whose results are on file:
Exercise: Answer with the recorded Herbicidal effects Am for the compound listed here: Cc1cc(-c2ccc(C(F)(F)F)n(C)c2=O)c(F)cc1Cl [1-90]
Key: 5

Exercise: Answer with the recorded Herbicidal effects Am for the compound listed here: COc1cc(-c2ccc(C(F)(F)F)n(C)c2=O)c(F)cc1Cl [1-15]
Key: 5

Exercise: Answer with the recorded Herbicidal effects Am for the compound listed here: Cn1c(C(F)(F)F)ccc(-c2c(F)cc(Cl)c3occc23)c1=O [Compound No. 4-28]
Key: 5

Now turn to the next compound.
Exercise: Answer with the recorded Herbicidal effects Am for the compound listed here: C#CC(O)c1cc(-c2ccc(C(F)(F)F)n(C)c2=O)c(F)cc1Cl (stereo not shown) [Compound 1-202]
Key: 5

----------
# Test system: wheat (Tr)
# experiment_description: Test Example 5: crop plant selectivity by upland field soil treatment (wheat), phytotoxicity
# Assay type: in vivo
# Parameters: scale not given here
# condition_notes: dose 6.3 g ai/10a, 21st day after application
observed_property: Phytotoxicity Tr

Some entries whose results are on file:
Exercise: Answer with the recorded Phytotoxicity Tr for the compound listed here: `Cn1c(C(F)(F)F)ccc(-c2c(F)cc(Cl)c3oc(CO)cc23)c1=O`
Key: 1

Exercise: Answer with the recorded Phytotoxicity Tr for the compound listed here: C#CC(C)Oc1cc(Cl)cc(F)c1-c1ccc(C(F)(F)F)n(C)c1=O (stereo not drawn)
Key: 1

Now turn to the next compound.
Exercise: Answer with the recorded Phytotoxicity Tr for the compound listed here: `CCN1C(=O)COc2cc(F)c(-c3ccc(C(F)(F)F)n(C)c3=O)cc21`
Key: 1

----------
# Tested on: cotton (Go)
# experiment_description: Test Example 4: crop plant selectivity by upland field soil treatment (cotton), phytotoxicity
# Assay type: in vivo
# Parameters: scale not given here
# condition_notes: dose 6.3 g ai/10 a, evaluated 21st day after application
# Text: (Test on Crop Plant Selectivity by Upland Field Soil Treatment) In a plastic pot (surface area: 600 cm^2) filled with sand, cotton (Go), Diaitaria ciliaris (Di), green foxtail (Se), pale smartweed (Po), slender amaranth (Am), common lambsquarters (Ch) and China jute (Ab) were sown and covered with soil. […]
Phytotoxicity Go for assorted molecules

Some entries whose results are on file:
Exercise: Provide Phytotoxicity Go, tested on cotton (Go), for `Cn1c(C(F)(F)F)ccc(-c2c(F)cc(Cl)c3oc(CBr)cc23)c1=O` .
Key: 1

Exercise: Provide Phytotoxicity Go, tested on cotton (Go), for `CCc1cc2c(-c3ccc(C(F)(F)F)n(C)c3=O)c(F)cc(Cl)c2o1` .
Key: 2

Exercise: Provide Phytotoxicity Go, tested on cotton (Go), for `CC(C)Oc1cc(-c2ccc(C(F)(F)F)n(C)c2=O)c(F)cc1Cl` .
Key: 0

Exercise: Provide Phytotoxicity Go, tested on cotton (Go), for C#CCN1C(=O)C(C)Oc2cc(Cl)c(-c3ccc(C(F)(F)F)n(C)c3=O)cc21 (centres unmarked) .
Key: 1

Now turn to the next molecule.
Exercise: Provide Phytotoxicity Go, tested on cotton (Go), for `C#CCN1C(=O)COc2cc(Cl)c(-c3ccc(C(F)(F)F)n(C)c3=O)cc21` .
Key: 0

----------
melting point for assorted compounds

Exercise: Answer with the recorded melting point for the compound listed here: Cn1c(C(F)(F)F)cc(Cl)c(-c2ccc(Cl)cc2)c1=O [Compound No. 11-1]
Key: 48 to 50 °C

Exercise: Answer with the recorded melting point for the compound listed here: Cn1c(C(F)(F)F)cc(Cl)c(-c2ccc(Cl)c(NS(C)(=O)=O)c2)c1=O [Compound No. 11-3]
Key: 161 to 163 °C

Exercise: Answer with the recorded melting point for the compound listed here: C#CCOCc1cc(-c2ccc(C(F)(F)F)n(C)c2=O)c(F)cc1Cl [Compound No. 1-199]
Key: 99 to 101 °C

Exercise: Answer with the recorded melting point for the compound listed here: CCOC(=O)c1c(C(F)(F)F)n(C)cc(-c2cc(OC(C)C)c(Cl)cc2F)c1=O [Compound No. 6-42]
Key: 170 to 172 °C

Exercise: Answer with the recorded melting point for the compound listed here: Cn1c(C(F)(F)F)ccc(-c2cc(S(=O)(=O)Cl)c(Cl)cc2F)c1=O [Compound No. 1-84]
Key: 77 to 78 °C

Exercise: Answer with the recorded melting point for the compound listed here: C#CCOc1cc(-c2cc(C)c(C(F)(F)F)n(C)c2=O)c(F)cc1Cl [Compound No. 1-76]
Key: 107 to 108 °C

Exercise: Answer with the recorded melting point for the compound listed here: Cn1c(C(F)(F)F)ccc(-c2c(Cl)cc(Cl)c3oc(C(Br)(Br)Br)cc23)c1=O [4-40]
Key: 225 to 227 °C

Exercise: Answer with the recorded melting point for the compound listed here: CCC(c1cc2c(-c3ccc(C(F)(F)F)n(C)c3=O)c(F)cc(Cl)c2o1)S(C)(=O)=O (stereo not shown) [Compound No. 4-58]
Key: 146 to 148 °C

Exercise: Answer with the recorded melting point for the compound listed here: Cn1c(C(F)(F)F)ccc(-c2cc([S+](C)[O-])c(Cl)cc2F)c1=O (stereo not shown) [Compound No. 1-88]
Key: 147 to 148 °C

Exercise: Answer with the recorded melting point for the compound listed here: CNS(=O)(=O)c1cc(-c2ccc(C(F)(F)F)n(C)c2=O)c(F)cc1Cl [Compound No. 1-71]
Key: 150 to 151 °C

Continuing:
Exercise: Answer with the recorded melting point for the compound listed here: Cn1c(C(F)(F)F)ccc(-c2cc(S(C)(=O)=O)c(Cl)cc2F)c1=O [Compound No. 1-73]
Key: 144 to 145 °C

Exercise: Answer with the recorded melting point for the compound listed here: CCOC(=O)c1c(C(F)(F)F)[nH]cc(-c2cc(OC(C)C)c(Cl)cc2F)c1=O [Compound No. 6-57]
Key: 118 to 119 °C

Exercise: Answer with the recorded melting point for the compound listed here: Cn1c(C(F)(F)F)ccc(-c2cc(C#N)c(Cl)cc2F)c1=O [Compound No. 1-119]
Key: 180 to 181 °C

Exercise: Answer with the recorded melting point for the compound listed here: CC(C)Oc1cc(-c2cn(C)c(C(F)(F)F)cc2=O)c(F)cc1Cl [Compound No. 6-7]
Key: 150 to 151 °C

Exercise: Answer with the recorded melting point for the compound listed here: Cn1cc(-c2cc(Oc3ccccc3)c(Cl)cc2F)c(=O)cc1C(F)(F)F [Compound No. 6-19]
Key: 159 to 161 °C

Exercise: Answer with the recorded melting point for the compound listed here: COCc1cc2c(-c3ccc(C(F)(F)F)n(C)c3=O)c(F)cc(Cl)c2o1 [Compound No. 4-4]
Key: 136 to 137 °C

----------
# System: common lambsquarters (Ch)
# experiment_description: Test Example 3: herbicidal effects by upland field foliage treatment
# Assay type: in vivo
# Set-up: scale not given here
# condition_notes: 100 g active ingredient per 10 ares, evaluated 14th day after treatment
observed_property: Herbicidal effects Ch
Just the number, please, no unit attached.

Exercise: Answer with the recorded Herbicidal effects Ch for the molecule listed here: `CCc1cc2c(-c3cn(C)c(C(F)(F)F)cc3=O)c(F)cc(Cl)c2o1`
Key: 5

Exercise: Answer with the recorded Herbicidal effects Ch for the molecule listed here: `CSCOc1cc(-c2ccc(C(F)(F)F)n(C)c2=O)c(F)cc1Cl`
Key: 5

Exercise: Answer with the recorded Herbicidal effects Ch for the molecule listed here: `C#CCN1C(=O)COc2cc(F)c(-c3cc(C)c(C(F)(F)F)n(C)c3=O)cc21`
Key: 5

----------
# System: wheat (Tr)
# experiment_description: Test Example 5: crop plant selectivity by upland field soil treatment (wheat), phytotoxicity
# Assay type: in vivo
# Parameters: scale not given here
# condition_notes: dose 1.6 g ai/10a, 21st day after application
observed_property: Phytotoxicity Tr
Just the number, please, no unit attached.

Some entries whose results are on file:
Exercise: Answer with the recorded Phytotoxicity Tr for the compound listed here: C#CC(C)Oc1cc(-c2cn(C)c(C(F)(F)F)cc2=O)c(F)cc1Cl (racemic)
Key: 0

Exercise: Answer with the recorded Phytotoxicity Tr for the compound listed here: `COCc1cc2c(-c3ccc(C(F)(F)F)n(C)c3=O)c(F)cc(Cl)c2o1`
Key: 2

Exercise: Answer with the recorded Phytotoxicity Tr for the compound listed here: `CCCOc1cc(-c2ccc(C(F)(F)F)n(C)c2=O)c(F)cc1Cl`
Key: 1

Now turn to the next compound.
Exercise: Answer with the recorded Phytotoxicity Tr for the compound listed here: C#CC(C)Oc1cc(Cl)cc(F)c1-c1ccc(C(F)(F)F)n(C)c1=O (stereo not shown)
Key: 1

Value source: patent US6472348B1
